System: OVCAR-4 ovarian
Assay: NCI-60 one-dose screen, 48 h
Settings: 10 µM
Compounds without any hit were thinned out: in the full panel of roughly 83,000, 20% have a hit. Activity calls are given as the source filed them. The calls were made as follows: active = growth percent below 10; inactive = the rest.
Labels: active, inactive

MOLECULE	ASSIGNED CLASS
O=C1OCC2=C1C(c1cccc(Cl)c1)c1cc3c(cc1N2CCO)OCCO3 (stereo not drawn)	inactive
O=C(N/N=C/c1ccccc1)C(Oc1ccccc1)c1ccccc1 (stereo not drawn)	inactive
COc1cc(NC(=O)CCSc2nc3ccc(C)cc3c(=O)n2Cc2ccccc2)cc(OC)c1OC	active

====

System: LOX IMVI melanoma
Test: NCI-60 one-dose screen, 48 h
Conditions: 10 µM
Compounds without any hit were thinned out: in the full panel of roughly 83,000, 20% have a hit. Calls of active or inactive are those of the source. The calls were made as follows: active = growth percent below 10; inactive = the rest.
Labels: active, inactive

COMPOUND	ASSIGNED CLASS
CCCCN(CCCC)c1cc(C(=O)CCCCCN)c2ccccc2n1	active
CCc1ccc2c(c1)N(CCO)C1=C(C(=O)OC1)C2c1ccccc1 (centres undefined)	inactive
O=S(=O)(NCCNc1nccc(-c2c(-c3ccc(F)cc3)nc3sccn23)n1)c1ccc2ccccc2c1	inactive
CC(C)(C)c1ccc(N2CSC(=S)N(c3ccc(C(C)(C)C)cc3)C2)cc1	inactive
c1ccc([I+]c2ccccc2)cc1	inactive
COc1ccc(-c2nc3sccn3c2-c2nc3c([nH]2)C(=O)c2ccccc2C3=O)cc1	inactive
CN1CCC2(CC1)NC(=O)c1c(c3ccc(Cl)c(Cl)c3n1C)C2C#N (centres undefined)	inactive
CCCC#CCN(CC)CC	inactive
COc1cccc(C(=O)Nc2ccc(CN3CCc4nc5cc(OC)c(OC)cc5cc43)cc2)c1	inactive
Cc1ccc(C)c(C(O)(c2cc(C)ccc2C)C2(O)CCCCC2)c1	inactive
COc1ccc(-c2nc(-c3nc4ccc(Cl)cc4[nH]3)c3ccccn23)cc1	inactive
Clc1ccc(Sc2nc(NC3CC3)nc(Sc3ccc(Cl)cc3)n2)cc1	inactive
COc1ccc2c(c1)[n+]([O-])c(C#N)c(NC(=O)c1ccco1)[n+]2[O-]	inactive
COc1ccc2c(c1)N(CCO)C1=C(C(=O)OC1)C2c1ccccc1 (centres undefined)	inactive
Cc1nc2oc3ccccc3c(=O)c2cc1C(=O)NCc1ccccc1	inactive
O=C(N/N=C/c1ccccc1O)C(O)(c1ccccc1)c1ccccc1	inactive
COC(=O)C1(C)Cc2cc(OC(C)=O)c(OC(C)=O)cc2N1 (centres undefined)	inactive
COc1ccc(-c2nn(-c3cccc(NC(=O)Nc4cc(C(F)(F)F)cc(C(F)(F)F)c4)c3)cc2-c2ccncc2)cc1Cl	inactive
COC(=O)c1c(-c2ccccc2)csc1NC(=O)c1c(-c2ccccc2)noc1C	active
ClC(Cl)(Cl)c1nc2nccnc2[nH]1	inactive
O=C(CCCCC(=O)Nc1ccc2c(c1)/C(=C/c1ccc[nH]1)C(=O)N2)NO	inactive
COc1ccc(-c2nc3ncccn3c2-c2nnc(-c3ccsc3C)o2)cc1	inactive
CCC(=O)N1C/C(=C/c2ccc(Cl)cc2)C(=O)/C(=C/c2ccc(Cl)cc2)C1	active
COc1ccc(-c2nc3ncccn3c2-c2nnc(-c3ccc(F)cc3)o2)cc1	inactive
COc1cc(-c2cc(/C=C3\C(=O)Nc4cc(Cl)ccc43)[nH]n2)cc(OC)c1OC	active
NC(=S)N=Nc1c(O)c2ccccc2c2ccccc12	active
CN(C)c1ccc(N=C2C=CC(=O)c3ccccc32)cc1	inactive
CC(C)(C#N)Nc1ccccc1	inactive
CC/C(=N\N=C(/CC)c1ccc(Br)cc1)c1ccc(Br)cc1	inactive
O=C(O)C(SC(C(=O)O)c1ccccc1)c1ccccc1 (centres undefined)	inactive
COc1ccc2c(c1)sc1nc(-c3ccccc3)c(-c3ccsc3)n12	inactive
O=C1/C(=C\c2ccc(Cl)cc2)CN(C(=S)Nc2ccccc2)C/C1=C\c1ccc(Cl)cc1	active
CCN(CC)CCCC(C)Nc1ccc2ccc(Cl)cc2n1 (centres undefined)	inactive
N=C(N)c1ccc(-c2ccc(-c3ccccc3)o2)nc1	inactive
